# ASSAYED_SYSTEM: T1, biotinylated ADDL (bADDL) (UniProt P05067 672-713, N-terminal biotin)
# T1 construct: domain: Aβ1-42; Soluble oligomers of Aβ1-42; also called bADDLs; biotinylated high molecular weight ADDL
# PROCEDURE_DETAILS: BIACORE, bADDL as antigen; column IgG1 #1

{"BINDER": "Mouse-20C2 antibody (IgG1) (antibody, V domains shown, value in the column IgG1 #1; also called murine 20C2) VH: QVTLKESGPGILKPSQTLSLTCSLSGFSLSTSGMGVGWFRQPSGKGLEWLAHIWWDDDKSYNPSLKSRLTISKYTSRNQVFLTITSVDTADTATYYCARRQLGLRSIDAMDYWGQGTSVTVSS VL: DVLMTQTPLSLPVSLGDQASISCRSSQSILHSNGNTYLEWYLQKPGQSPKLLIYKVSNRFSGVPDRFSGSGSGTDFTLKISRVEAEDLGVYYCFQGSLVPLTFGAGTKLELK", "Kd, nM": 4.1}
{"BINDER": "20C2-24A IgG1 (antibody, V domains shown, IgG1 humanized A version; also called SJ-p2-44) VH: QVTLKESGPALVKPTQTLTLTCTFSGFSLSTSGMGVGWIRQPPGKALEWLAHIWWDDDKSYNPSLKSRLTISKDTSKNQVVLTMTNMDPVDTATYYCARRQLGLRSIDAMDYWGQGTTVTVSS VL: DVVMTQSPLSLPVTPGEPASISCRSSQSILHSNGNTYLEWYLQKPGQSPQLLIYKVSNRFSGVPDRFSGSGSGTDFTLKISRVEAEDVGVYYCGQTTLVPLTFGQGTKLEIK", "Kd, nM": 0.114}
{"BINDER": "20C2-2A IgG1 (antibody, V domains shown, IgG1 humanized A version; also called SJ-p1-18) VH: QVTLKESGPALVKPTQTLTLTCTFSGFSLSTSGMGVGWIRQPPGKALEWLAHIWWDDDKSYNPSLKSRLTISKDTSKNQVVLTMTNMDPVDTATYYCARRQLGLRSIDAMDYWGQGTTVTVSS VL: DVVMTQSPLSLPVTPGEPASISCRSSQSILHSNGNTYLEWYLQKPGQSPQLLIYKVSNRFSGVPDRFSGSGSGTDFTLKISRVEAEDVGVYYCFQATRVPLTFGQGTKLEIK", "Kd, nM": 0.015}
